# experimentalSystem: T1, human common cytokine receptor γ-chain (IL-2Rγ) (human, UniProt P31785 23-262, limits assumed)
# T1 construct: Recombinant human IL-2Rγ protein, coated (ELISA) or amine-coupled to a CM5 chip (SPR); also called hu IL-2R; CD132
# T1 sequence: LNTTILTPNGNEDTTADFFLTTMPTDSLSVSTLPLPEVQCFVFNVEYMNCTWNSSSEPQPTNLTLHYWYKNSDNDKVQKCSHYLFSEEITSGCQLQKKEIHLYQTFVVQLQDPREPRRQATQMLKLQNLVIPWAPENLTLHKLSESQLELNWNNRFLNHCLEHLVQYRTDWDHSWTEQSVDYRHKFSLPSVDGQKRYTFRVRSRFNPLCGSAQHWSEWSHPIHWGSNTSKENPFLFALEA
# assayName: P.E. binding ELISA
Parameter: PE binding ELISA OD. Scope: all listed entries.
Enter your answer as a number in OD450 nm; do not include the unit.

Solved cases (3 shown):
binder: FJ1427_P035MP07A03 (VHH, tested as periplasmic extract; also called Clone nr) VHH: EVQLVESGGGLVQAGGSLRLSCAASGRTLSRYAMGWFRQAPGKEREYVAIDSWGGDTFYADSVEGRFTFSRDNAKNEVYLQMNSLQPEDTAVYYCAGAPTSFATTAYSSSNSYRYWGQGTQVTVSS
unitSpec: OD450 nm
PE binding ELISA OD: 1.69
--
binder: FJ1427_P035MP07C05 (VHH, tested as periplasmic extract; also called Clone nr; 611) VHH: EVQLVESGGGLVQPGGSLRLSCAASGRALSRLAMGWFRQAPGKEREFVVASSWGDDTFYADSVKGRFTFSRDNAKNTVYLQMNSLQPGDTAVYYCAAAPTSFATTAYSSSNSYAYWGQGTQVTVSS
unitSpec: OD450 nm
PE binding ELISA OD: 0.479
--
binder: FJ1427_P035MP07H09 (VHH, tested as periplasmic extract; also called Clone nr) VHH: QVQLVESGGGLVQAGGSLRLSCAASGRTLSRYAMGWFRQAPGKEREFVAANSWGGDTYYTDSVEGRFTFSRDNAKNAVYLQMNSLQPEDTAVYYCAAAPTSFATTAYSSSNSYTYWGQGTQVTVSS
unitSpec: OD450 nm
PE binding ELISA OD: 1.11

We next turn to a different binder, shown below.
Using the record for FJ1427_P035MP07F08 (VHH, tested as periplasmic extract; also called Clone nr; 638) VHH: QVQLVESGGGLVQAGGSLRLSCAASGRTLSRDAMGWFRQAPGKEREFVAADSWGGDTFYADSVEGRFTFSRDNAKNAVYLQMNSLQPEDTAVYYCAGAPTSFATTAYSSSNSYRYWGQGTQVTVSS , state its measured PE binding ELISA OD.
1.24
